tested_on: human B1R receptor (hB1R) (Homo sapiens)
Construct: host or cells: CHO K1 cells
protocol_text: FLIPR Ca2+ assay (Fluo-4) on CHO K1 cells stably transfected with the human B1R gene
Assay type: cell-based
condition_parameters: CHO-K1; test substance 10 μM; agonist Lys-Des-Arg9-bradykinin 0.5 nM; % inhibition compared to the maximum achievable inhibition
assay_metric: inhibition at 10 µM (%)

- compound: "O=C(CC1CCCCN1S(=O)(=O)c1cccc(C(F)(F)F)c1)N1CCn2c(CN3CCCC3)ccc2C1 (stereo not shown)"
  tested_on: "human B1R receptor (hB1R) (Homo sapiens)"
  quantitative_readout: 99
- compound: "COc1cccc(C2c3cccn3CCN2C(=O)COCC2CCCCN2S(=O)(=O)c2c(C)cc(OC)cc2C)c1 (stereo not shown)"
  tested_on: "human B1R receptor (hB1R) (Homo sapiens)"
  quantitative_readout: 96

P = Cc1cc(C)c(S(=O)(=O)N2CCCCC2COCC(=O)N2CCn3ccnc3C2)c(C)c1 (stereo not shown)
Q = CCCC1c2cccn2CCN1C(=O)COCC1CCCCN1S(=O)(=O)c1c(C)cc(C)cc1C (stereo not shown)
Problem: Identify the entry with the smaller inhibition at 10 µM: P or Q . Could you answer with the label of the item you picked?
Result: P
(P: 18%, Q: 95%)

====

tested_on: human B1R receptor (hB1R) (Homo sapiens)
Construct: host or cells: CHO K1 cells
Sequence (P46663 1-353): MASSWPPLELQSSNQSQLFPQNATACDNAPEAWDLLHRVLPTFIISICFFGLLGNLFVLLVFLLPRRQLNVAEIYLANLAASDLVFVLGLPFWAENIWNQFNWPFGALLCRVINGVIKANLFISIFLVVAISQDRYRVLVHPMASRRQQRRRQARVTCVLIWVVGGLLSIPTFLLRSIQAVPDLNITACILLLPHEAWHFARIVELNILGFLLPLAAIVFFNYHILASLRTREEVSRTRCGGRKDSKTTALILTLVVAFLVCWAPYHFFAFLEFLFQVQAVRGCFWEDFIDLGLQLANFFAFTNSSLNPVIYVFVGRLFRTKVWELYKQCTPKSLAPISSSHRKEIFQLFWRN
protocol_text: FLIPR Ca2+ assay (Fluo-4) on CHO K1 cells stably transfected with the human B1R gene
Assay type: cell-based
condition_parameters: CHO-K1; test substance 10 μM; agonist Lys-Des-Arg9-bradykinin 0.5 nM; % inhibition compared to the maximum achievable inhibition
assay_metric: inhibition at 10 µM (%)

- compound: "Cc1cc(C)c(S(=O)(=O)N2CCCCC2COCC(=O)N2CCn3cccc3C2c2ccc(C)c(C)c2)c(C)c1 (stereo not drawn)"
  unit_of_measurement: "%"
  inhibition at 10 µM: 35

I = COc1cc(C)c(S(=O)(=O)N2CCCCC2CCC(=O)N2CCn3c(ccc3-c3cccnc3)C2)c(C)c1 (stereo not drawn)
II = Cc1cc(C)c(S(=O)(=O)N2CCCCC2COCC(=O)N2CCn3c(C)ccc3C2C(C)C)c(C)c1 (stereo not drawn)
Problem: Kindly identify which of I and II has the larger recorded inhibition at 10 µM value. Write down the label attached to your selection.
Result: II
(II: 85%, I: 45%)

====

tested_on: B1R receptor of rats (rB1R) (Rattus norvegicus)
Construct: host or cells: CHO K1 cells
Sequence (P97583 1-337): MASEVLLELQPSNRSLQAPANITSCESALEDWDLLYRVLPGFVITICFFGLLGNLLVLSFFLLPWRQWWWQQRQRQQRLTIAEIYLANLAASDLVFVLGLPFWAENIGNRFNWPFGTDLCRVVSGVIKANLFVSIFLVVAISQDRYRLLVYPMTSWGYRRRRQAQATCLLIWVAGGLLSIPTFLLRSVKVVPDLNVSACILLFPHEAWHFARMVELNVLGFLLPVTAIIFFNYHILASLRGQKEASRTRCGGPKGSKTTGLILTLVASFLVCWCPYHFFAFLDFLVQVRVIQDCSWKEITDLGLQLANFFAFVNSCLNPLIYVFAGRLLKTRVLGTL
protocol_text: FLIPR Ca2+ assay (Fluo-4) on CHO K1 cells stably transfected with the B1R gene of rats
Type: cell-based
condition_parameters: CHO-K1; test substance 10 μM; agonist Des-Arg9-bradykinin 100 nM; % inhibition compared to the maximum achievable inhibition
Excerpt: The agonistic or antagonistic action of compounds can be quantified on the bradykinin 1 receptor (B1R) of humans and rats with ectopically expressing cell lines (CHO K1 cells) and with the aid of a Ca^2+-sensitive dye (Fluo-4) in the fluorescent imaging plate reader (FLIPR). […] The agonistic or antagonistic action of substances can be determined on the bradykinin 1 receptor (B1R) of humans and rats by means of the following assay. […]
assay_metric: inhibition at 10 µM (%)

Solved entries:
- molecule: "COc1cc(C)c(S(=O)(=O)N2CCCCC2COCC(=O)N2CCn3cccc3C2c2ccccc2)c(C)c1 (stereo not shown) [(25)]"
  tested_on: "B1R receptor of rats (rB1R) (Rattus norvegicus)"
  inhibition at 10 µM / %: 97
- molecule: "COc1cc(C)c(S(=O)(=O)N2CCCCC2COCC(=O)N2CCn3cnnc3C2)c(C)c1 (stereo not shown) [(1)]"
  tested_on: "B1R receptor of rats (rB1R) (Rattus norvegicus)"
  inhibition at 10 µM / %: 100
- molecule: "O=C(CC1CCCCN1S(=O)(=O)c1cccc(C(F)(F)F)c1)N1CCn2c(ccc2-c2cccnc2)C1 (stereo not shown) [(93)]"
  tested_on: "B1R receptor of rats (rB1R) (Rattus norvegicus)"
  inhibition at 10 µM / %: 55
- molecule: "COc1cc(C)c(S(=O)(=O)N2CCCCC2CCC(=O)N2CCn3cc(Cc4ccncc4)nc3C2)c(C)c1 (stereo not shown) [(121)]"
  tested_on: "B1R receptor of rats (rB1R) (Rattus norvegicus)"
  inhibition at 10 µM / %: 51
- molecule: "COc1cc(C)c(S(=O)(=O)N2CCCCC2COCC(=O)N2CCn3cccc3C2c2cccs2)c(C)c1 (stereo not shown) [(29)]"
  tested_on: "B1R receptor of rats (rB1R) (Rattus norvegicus)"
  inhibition at 10 µM / %: 98

P = COc1cc(C)c(S(=O)(=O)N2CCCCC2COCC(=O)N2CCn3cccc3C2C(C)C)c(C)c1 (stereo not shown) [(72)]
Q = CN1CCN(Cc2ccc3n2CCN(C(=O)COCC2CCc4ccccc4N2S(=O)(=O)c2ccc(Cl)c(Cl)c2)C3)CC1 (stereo not shown) [(11)]
Problem: Endpoint returns the identifier whose inhibition at 10 µM is numerically larger, either P or Q . Please identify the chosen entry by its label.
Result: P

====

tested_on: B1R receptor of rats (rB1R) (Rattus norvegicus, UniProt P97583)
Construct: host or cells: CHO K1 cells
Sequence (P97583 1-337): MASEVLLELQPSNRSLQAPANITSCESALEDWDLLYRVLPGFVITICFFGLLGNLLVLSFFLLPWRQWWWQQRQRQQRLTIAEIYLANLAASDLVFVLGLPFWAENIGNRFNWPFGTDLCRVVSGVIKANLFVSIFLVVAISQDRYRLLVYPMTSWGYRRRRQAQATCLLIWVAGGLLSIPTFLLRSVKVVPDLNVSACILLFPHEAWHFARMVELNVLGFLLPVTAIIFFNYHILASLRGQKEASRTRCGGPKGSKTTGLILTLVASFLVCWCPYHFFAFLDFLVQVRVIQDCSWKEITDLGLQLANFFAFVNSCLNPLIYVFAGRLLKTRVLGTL
protocol_text: FLIPR Ca2+ assay (Fluo-4) on CHO K1 cells stably transfected with the B1R gene of rats
Type: cell-based
condition_parameters: CHO-K1; test substance 10 μM; agonist Des-Arg9-bradykinin 100 nM; % inhibition compared to the maximum achievable inhibition
assay_metric: inhibition at 10 µM (%)

- molecule: "Cc1cc(C)c(S(=O)(=O)N2CCCCC2COCC(=O)N2CCn3cccc3C2c2ccc(Cl)nc2)c(C)c1 (centres unmarked) [(36)]"
  tested_on: "B1R receptor of rats (rB1R) (Rattus norvegicus, UniProt P97583)"
  unit_of_measurement: "%"
  quantitative_readout: 99
- molecule: "COc1cc(C)c(S(=O)(=O)N2CCCCC2CCC(=O)N2CCn3cc(CCc4ccncc4)nc3C2)c(C)c1 (centres unmarked) [(117)]"
  tested_on: "B1R receptor of rats (rB1R) (Rattus norvegicus, UniProt P97583)"
  unit_of_measurement: "%"
  quantitative_readout: 98
- molecule: "COc1cc(C)c(S(=O)(=O)N2CCCCC2CCCC(=O)N2CCn3cc(CCc4ccncc4)nc3C2)c(C)c1 (centres unmarked) [(118)]"
  tested_on: "B1R receptor of rats (rB1R) (Rattus norvegicus, UniProt P97583)"
  unit_of_measurement: "%"
  quantitative_readout: 102
- molecule: "COc1cc(C)c(S(=O)(=O)N2CCCCC2CCCC(=O)N2CCn3c(ccc3-c3cccnc3)C2)c(C)c1 (centres unmarked) [(92)]"
  tested_on: "B1R receptor of rats (rB1R) (Rattus norvegicus, UniProt P97583)"
  unit_of_measurement: "%"
  quantitative_readout: 99
- molecule: "Cc1cc(C)c(S(=O)(=O)N2CCCCC2COCC(=O)N2CCn3cccc3C2c2ccc(C)c(C)c2)c(C)c1 (centres unmarked) [(41)]"
  tested_on: "B1R receptor of rats (rB1R) (Rattus norvegicus, UniProt P97583)"
  unit_of_measurement: "%"
  quantitative_readout: 98
- molecule: "COc1cc(C)c(S(=O)(=O)N2CCCCC2COCC(=O)N2CCn3c(CN4CCOCC4)ccc3C2c2ccccc2)c(C)c1 (centres unmarked) [(64)]"
  tested_on: "B1R receptor of rats (rB1R) (Rattus norvegicus, UniProt P97583)"
  unit_of_measurement: "%"
  quantitative_readout: 102
- molecule: "COc1cc(C)c(S(=O)(=O)N2CCCCC2COCC(=O)N2CCn3c(CN4CCCCC4)nnc3C2)c(C)c1 (centres unmarked) [(87)]"
  tested_on: "B1R receptor of rats (rB1R) (Rattus norvegicus, UniProt P97583)"
  unit_of_measurement: "%"
  quantitative_readout: 103
- molecule: "COc1cc(C)c(S(=O)(=O)N2CCCCC2CCC(=O)N2CCn3c(ccc3-c3cccnc3)C2)c(C)c1 (centres unmarked) [(94)]"
  tested_on: "B1R receptor of rats (rB1R) (Rattus norvegicus, UniProt P97583)"
  unit_of_measurement: "%"
  quantitative_readout: 99
